Attribution: the DeepSol protein solubility set

method-notes: soluble on expression in E. coli; label from the status in PepcDB or PDB records
test-readout: soluble on expression in E. coli

* GIDPFTVRTRVSEGLVLAEPAKLMISTDGSASTADLTRATTTWNQQSNNLGASSKYVTSVLMDAGNTGVITITYVADQVGLPTAGNTLILSPYINDGNTRTALATAVAAGTRGTIDWACTSASNATATAQGFTGMAAGSVPQEFAPAQCR | soluble
* MHSVPSTGFPQSEFSGPFWTGRGVACARPNRYVWTARPSDQSSRRMSTSFSRRLRRLQSQKETALCVGLDPVPARFPPSLQDGRLRTDAVRAFCTTIVEATAPYACAFKPNFAFFEALGPAGLTVLDQVVTTIPDDCLVLGDAKRGDIGHSARHYAASIYEELGLDACTVSPYLGRDSVMPFLEHEGTCTFVLARTSNDGAADLQEACTCDGTPLYRHVARRVQAWNADAPGGAGLVVGATAPAALQDLRSLCPSLPFLVPGVGAQGGDAAAVMDAAATDEGPVLVNSSRSILYASEGPNYANAAADAARALRDALNGGASSSRGAPSPPALEHHHHHH | soluble
* SMQEKREELRMRSENQAMNIVLQRQYDQYRLSIDNIELLRREFHDLKHYMIAIRSEQDPKKKEQYLLEMEEAIHTQEALTNTGNSVLDVVLTTKSTYCMQKHITFTCMADGKLISFMHVKDICSIFGNALDNAIECVSQFDDPEKRLITLSMYQKNQLLMIQCENYTETSLSLKPDQLPTTTKQNAGYHGYGLKSIQQAARKYGGSMTLHAEDNWFTLQVLIPVES | not soluble
* MGSDKIHHHHHHMGIPKRKLGERGPEVSAIGLGCMRMSFGQKKLPDRKEMIKLIRTAVELGINFFDTAEVYGPYTNEELVGEALEPFKGEVVIATKFGFELYEDGRPGWKGLNSNPEHIKKAVEGSLRRLRVEAIDILYQHRVDPNVPIEEVAGAVKELIEEGKVKHFGLCEASAETIRRAHKVCPVDVVQYEYSMWWRKPEEELLPTCEELGIGFVAYSPLGKGFLTGAIGENSKFDEEDSRSRIPRFQKENLRENLALVELRKTIAERKGATPSQIALAWLLAQKPWIVPIPGTTKLSHLLENIGGAFVELTPEELQEINDALSRIEIKGSRYPEDMEKMTYL | not soluble
* MIFLIVLKYPVSLNVIRKLKTGDVVYYTGKIVVMDRSVVDILEKYERYEGTKLYDLTGEIVVLGTFRKNKLQFQEMTEELLERLFLLGVNGVILERVRPFSATKRFSRVLFEPLEEIRGTRRVIYKTPDSKKLEELEVEKLVLRVVQDSSGKVYSKV | not soluble
* MTIAIVIGTHGWAAEQLLKTAEMLLGEQENVGWIDFVPGENAETLIEKYNAQLAKLDTTKGVLFLVDTWGGSPFNAASRIVVDKEHYEVIAGVNIPMLVETLMARDDDPSFDELVALAVETGREGVKALKAKPFAG | soluble
* MAHHHHHHMVGARFFFLNLPTSLSSASSLNRNKITSNRLPTDPSTPQWRDGYKLRKAVDDSSTQSTHRLPIYFCNAQRRVSSHSGRKTLLLATICIYDVGALDSFPIVLLVPLLNFIKSGLNEVDGSADCVDFSEYQCLTAPFPTTFRISLCPRLRFGGQFFFFCTHSRGDKNSRSILSHQRLAKFVPLFHTWYNEQDIS | not soluble
* MGSDKIHHHHHHMLKKESIHFINKNRSLIVCEDNFVYLLPCIQLRNWISNFTISFPNQTIISDNYTIIPHGSVTLVFFYDATGLHSLLFGPTTKPKTVGNIANRCDVILIIEFQPAGFFPLIGIQQSELIDKVVPFSIINTSLDLEIKKIFNESLSIDKLILKLEELLISNIKIEYSYEFILAIQLIIQNSGNISSQEISKKVFYSSRHLNRLFNQYLGLSMKSFSRLVRINKSIKLLNNNKTSLMSICNELGFYDIPHFIKDFKIVCGITPQKYRANMSDFYSEIAKF | not soluble
* MGSSHHHHHHSSGLVPRGSHMKKRQLGTSDLHVSELGFGCMSLGTDETKARRIMDEVLELGINYLDTADLYNQGLNEQFVGKALKGRRQDIILATKVGNRFEQGKEGWWWDPSKAYIKEAVKDSLRRLQTDYIDLYQLHGGTIDDPIDETIEAFEELKQEGVIRYYGISSIRPNVIKEYLKRSNIVSIMMQYSILDRRPEEWFPLIQEHGVSVVVRGPVARGLLSRRPLPEGEGYLNYRYDELKLLRESLPTDRPLHELALQYCLAHDVVATVAAGASSIDQVKANVQAVEATPLTAEERQHIQKLAKAAVYEQHRE | soluble
* MGSDKIHHHHHHMWTILCDKDSGGVLLRKGVSTSIIRSNPDLLEALPKAELYELGFFKAEDLEKVLRFFHDKNFGIHAPFIYRYRYHHPNPTSLNEEEREDTFSVNKKCAELARKIGAEYMIIHFPNALQKENWLSVYREVEREFSELAGVISVRVENVYGNDHFHSAEDYRTFLENTGCKMCVDIGHLLLDAEVYGFSPIEFIEKLSDFVEEFHIYYADFETYKKCHHAPWGESKEFLEVLEFIKDFDADFVLEPTPECEEGLEKLFEYWRDL | not soluble

Record PVFILGHWRSGTTFVHNVFSCDSHFGYNTTYQTVFPHLMMWGQPFFKKNMSWLMPDKRPTDNMELAVDLPQEEEFALANMMPYTYYNFWFLPRYQQEYADKYLLFDTISEAELKVFEETFTKLIKISLWNTQGTQFLSKNPPHTGRVKELVKMFPNAKFIYLMRNPYTVFESTRSFFTNTIQPLKLQDITPAELENNILSIYAKLYHKYEADKQFIPEGNLMEVKFEDFEADAMGMTENIYHALDIPGFAEARGSIEKYVGGKKGYKKNKYKYDDRTVQLVQDHWDFALKQWDYSL . Reported soluble on expression in E. coli: not soluble

###

method-notes: soluble on expression in E. coli; label from the status in PepcDB or PDB records
test-readout: soluble on expression in E. coli

- MLYREHHSWIYTWLYRRLGNSADAADLAQDTFIRVITRKSLLEIEQPRAYLTTVAKSLMLNWFNRRNIEQAYLEVLANQPEFEHPSPEQRYLIVETLIEVIQLLDTLPDQIRDVFLHAQLENMNYQQIADQFNLSLSTVKRHIKKAYIHCLTAMLDTDFSC: not soluble
- MISICLVNTYDKLKKHEIHLRSIARAAPLCYAFNFHLALLDFPFWRSEKEVAEEVANYTTIGEGGKYLLYLAESGKLHLIDKIPAHFGEVVATTSKPDPDKVVNPDTLAAFKSATFLIGLGRRGLPREMLKSAKYHLDVTRKGVSLETCSAIGAIAMLLAVKVVG: not soluble
- MAVLCGVCGIKEFKYKCPRCLVQTCSLECSKKHKTRDNCSGQTHDPKEYISSEALKQADDDKHERNAYVQRDYNYLTQLKRMVHVQKMDARMKNKRVLGPVGGHNSNFKKRRYDIDEDDRDSTECQRIIRRGVNCLMLPKGMQRSSQNRSKWDKTMDLFVWSVEWILCPMQEKGEKKELFKHVSHRIKETDFLVQGMGKNVFQKCCEFYRLAGTSSCIEGEDGSETKEERTQILQKSGLKFYTKTFPYNTTHIMDSKKLVELAIHEKCIGELLKNTTVIEFPTIFVAMTEADLPEGYEVLHQEPRPLEHTSTLNKFIDNAREEEDAEEDSQPTEEPVQKETQDASDSDSDSDDDYNPGLSMDFLTA: not soluble

###

method-notes: soluble on expression in E. coli; label from the status in PepcDB or PDB records
test-readout: soluble on expression in E. coli

* MRILFVGPPLYGLLYPVLSLAQAFRVNGHEVLIASGGKFAQKAAEAGLVVFDAAPGFDSEAGYRRQEALRKENNIGTKMGNFSFFSEEMTDPLVAFAGQWRPDLIVYPPLGVVGPLIAAKYDIPVVMQTVGFGHTPWHIKGVTKSLSNAYRRHGVSAPPRDLAWIDVTPPSMSILQNDGEPVISMQYVPYNGGAVWEEWWERTPDRKRLLVSLGTVKPMVDGLDLISWVMDSAGEVDAEIILHLPANARSDLRSLPPNVRLVDWLPMGVFLNGADGFIHHGGAGNTLTALHAGIPQIVFGQGADRPVNARAVVERGCGIIPGKSGLTSSMINTFLGNRALREASQEVAAEMAAQPCPTEVAKKLIAMLQHGLEHHHHHH | not soluble
* MGSDKIHHHHHHMSCIIPNIYSQPTDTNLWNILLSSGIPRHYQKGEFVFEKDQPSNGLICLKKGKVKVSSFFSEGSEKIFGILVAPALFGETETLDQGPRMVSATALTHVEIVAISGNKTKELIYTYPDIALSIIQSIGVKLRWTTLQAEDLSTQKIEYRLARLLLDFKHYGIFTSKNNDNCLMITHEELAHFIGTARSKVTTYLNEFAHKGLIRLRRGEIRILDTAGLNKYKYTHKSQA | not soluble
